Each recorded value in this set is attributed to PubChem BioAssay AID2060604.

System: 379773-124-R-J2-PDC complex spheroids, viability % test/control;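 note: compound exposure lasted seven days before the viability readout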
Protocol details: Anticancer human tumor 379773-124-R-J2-PDC patient-derived endometrial carcinoma cell line growth inhibition [CLK]; active = viability on the fitted dose curve at most 10% of control; inactive = the rest
Test context: second compound 10 µM; first compound 0.316 µM
The categories you may choose from are active, inactive

Use these answered entries as a reference point.
[[record]]
compound = "CCc1c2c(nc3ccc(O)cc13)-c1cc3c(c(=O)n1C2)COC(=O)[C@]3(O)CC + CNC(=O)c1ccc(Nc2nc(OC3CCCC3)c3c(-c4ccc5nc(C)oc5c4)c[nH]c3n2)c(OC)c1"
group = "active"

[[record]]
compound = "Nc1ccn(C2OC(CO)C(O)C2(F)F)c(=O)n1 (centres undefined) + CNC(=O)c1ccc(Nc2nc(OC3CCCC3)c3c(-c4ccc5nc(C)oc5c4)c[nH]c3n2)c(OC)c1"
group = "active"

[[record]]
compound = "CC1COCCN1c1cc(C2(S(C)(=N)=O)CC2)nc(-c2ccnc3[nH]ccc23)n1 (centres undefined) + CNC(=O)c1ccc(Nc2nc(OC3CCCC3)c3c(-c4ccc5nc(C)oc5c4)c[nH]c3n2)c(OC)c1"
group = "inactive"


Query :: Look up the recorded call for CCN1CCN(Cc2ccc(Nc3ncc(F)c(-c4cc(F)c5nc(C)n(C(C)C)c5c4)n3)nc2)CC1 + CNC(=O)c1ccc(Nc2nc(OC3CCCC3)c3c(-c4ccc5nc(C)oc5c4)c[nH]c3n2)c(OC)c1 in this test.
Result :: inactive

Query :: Look up the recorded call for CCCS(=O)(=O)Nc1ccc(F)c(C(=O)c2c[nH]c3ncc(-c4ccc(Cl)cc4)cc23)c1F + CNC(=O)c1ccc(Nc2nc(OC3CCCC3)c3c(-c4ccc5nc(C)oc5c4)c[nH]c3n2)c(OC)c1 in this test.
Result :: inactive
